Hi there, I'd appreciate the recorded microsomal CLint at 1 μM for every entry that follows.
Assay: Stability in human liver microsomes
Assay type: in vitro ADME
Details: both sexes, human, liver microsomes, pH 7.4, human liver microsomes, 1 μM; read-out: CLint

// known answers, use as guide
>>> meas_value("CCOc1ccnc(OCCN(C)C)c1C(=O)Nc1ccc(Cl)c(C(F)(F)F)c1 [RA013005]")
"> 139 µL/min/mg"
>>> meas_value("COc1cccc(OC)c1C(=O)Nc1ccc(Cl)c(C(F)(F)F)c1 [RA010115]")
"> 139 µL/min/mg"

Attention now turns to another entry.
Inquiry: Would you mind telling me what microsomal CLint at 1 μM value was observed for CCOc1cccc(OCCN(C)C)c1C(=O)Nc1ccc(Cl)c(C(F)(F)F)n1 [RA013915] ?
Reply text: 43.2 µL/min/mg

* * *

Assay: Stability in human liver microsomes
Assay type: in vitro ADME
Conditions: both sexes, human, liver microsomes, pH 7.4, human liver microsomes, 1 μM; fitted value printed in parentheses behind the bound; read-out: Half-life, value in parentheses
Kindly state half-life at 1 μM for each of the entries shown.
Numbers only, in min.

>>> meas_value("COc1cccc(OC)c1C(=O)Nc1ccc(Cl)c(C(F)(F)F)c1")
9.25

For the next question, use this molecule.
Inquiry: // query half-life at 1 μM value for entry CCOc1ccnc(OCCN(C)C)c1C(=O)Nc1ccc(Cl)c(C(F)(F)F)c1
Reply text: 7.36

* * *

Assignment: determine reported EC50 for the given molecules.
Biological target: p300 (Homo sapiens, UniProt Q09472)
Sequence (Q09472 whole entry, species assumed): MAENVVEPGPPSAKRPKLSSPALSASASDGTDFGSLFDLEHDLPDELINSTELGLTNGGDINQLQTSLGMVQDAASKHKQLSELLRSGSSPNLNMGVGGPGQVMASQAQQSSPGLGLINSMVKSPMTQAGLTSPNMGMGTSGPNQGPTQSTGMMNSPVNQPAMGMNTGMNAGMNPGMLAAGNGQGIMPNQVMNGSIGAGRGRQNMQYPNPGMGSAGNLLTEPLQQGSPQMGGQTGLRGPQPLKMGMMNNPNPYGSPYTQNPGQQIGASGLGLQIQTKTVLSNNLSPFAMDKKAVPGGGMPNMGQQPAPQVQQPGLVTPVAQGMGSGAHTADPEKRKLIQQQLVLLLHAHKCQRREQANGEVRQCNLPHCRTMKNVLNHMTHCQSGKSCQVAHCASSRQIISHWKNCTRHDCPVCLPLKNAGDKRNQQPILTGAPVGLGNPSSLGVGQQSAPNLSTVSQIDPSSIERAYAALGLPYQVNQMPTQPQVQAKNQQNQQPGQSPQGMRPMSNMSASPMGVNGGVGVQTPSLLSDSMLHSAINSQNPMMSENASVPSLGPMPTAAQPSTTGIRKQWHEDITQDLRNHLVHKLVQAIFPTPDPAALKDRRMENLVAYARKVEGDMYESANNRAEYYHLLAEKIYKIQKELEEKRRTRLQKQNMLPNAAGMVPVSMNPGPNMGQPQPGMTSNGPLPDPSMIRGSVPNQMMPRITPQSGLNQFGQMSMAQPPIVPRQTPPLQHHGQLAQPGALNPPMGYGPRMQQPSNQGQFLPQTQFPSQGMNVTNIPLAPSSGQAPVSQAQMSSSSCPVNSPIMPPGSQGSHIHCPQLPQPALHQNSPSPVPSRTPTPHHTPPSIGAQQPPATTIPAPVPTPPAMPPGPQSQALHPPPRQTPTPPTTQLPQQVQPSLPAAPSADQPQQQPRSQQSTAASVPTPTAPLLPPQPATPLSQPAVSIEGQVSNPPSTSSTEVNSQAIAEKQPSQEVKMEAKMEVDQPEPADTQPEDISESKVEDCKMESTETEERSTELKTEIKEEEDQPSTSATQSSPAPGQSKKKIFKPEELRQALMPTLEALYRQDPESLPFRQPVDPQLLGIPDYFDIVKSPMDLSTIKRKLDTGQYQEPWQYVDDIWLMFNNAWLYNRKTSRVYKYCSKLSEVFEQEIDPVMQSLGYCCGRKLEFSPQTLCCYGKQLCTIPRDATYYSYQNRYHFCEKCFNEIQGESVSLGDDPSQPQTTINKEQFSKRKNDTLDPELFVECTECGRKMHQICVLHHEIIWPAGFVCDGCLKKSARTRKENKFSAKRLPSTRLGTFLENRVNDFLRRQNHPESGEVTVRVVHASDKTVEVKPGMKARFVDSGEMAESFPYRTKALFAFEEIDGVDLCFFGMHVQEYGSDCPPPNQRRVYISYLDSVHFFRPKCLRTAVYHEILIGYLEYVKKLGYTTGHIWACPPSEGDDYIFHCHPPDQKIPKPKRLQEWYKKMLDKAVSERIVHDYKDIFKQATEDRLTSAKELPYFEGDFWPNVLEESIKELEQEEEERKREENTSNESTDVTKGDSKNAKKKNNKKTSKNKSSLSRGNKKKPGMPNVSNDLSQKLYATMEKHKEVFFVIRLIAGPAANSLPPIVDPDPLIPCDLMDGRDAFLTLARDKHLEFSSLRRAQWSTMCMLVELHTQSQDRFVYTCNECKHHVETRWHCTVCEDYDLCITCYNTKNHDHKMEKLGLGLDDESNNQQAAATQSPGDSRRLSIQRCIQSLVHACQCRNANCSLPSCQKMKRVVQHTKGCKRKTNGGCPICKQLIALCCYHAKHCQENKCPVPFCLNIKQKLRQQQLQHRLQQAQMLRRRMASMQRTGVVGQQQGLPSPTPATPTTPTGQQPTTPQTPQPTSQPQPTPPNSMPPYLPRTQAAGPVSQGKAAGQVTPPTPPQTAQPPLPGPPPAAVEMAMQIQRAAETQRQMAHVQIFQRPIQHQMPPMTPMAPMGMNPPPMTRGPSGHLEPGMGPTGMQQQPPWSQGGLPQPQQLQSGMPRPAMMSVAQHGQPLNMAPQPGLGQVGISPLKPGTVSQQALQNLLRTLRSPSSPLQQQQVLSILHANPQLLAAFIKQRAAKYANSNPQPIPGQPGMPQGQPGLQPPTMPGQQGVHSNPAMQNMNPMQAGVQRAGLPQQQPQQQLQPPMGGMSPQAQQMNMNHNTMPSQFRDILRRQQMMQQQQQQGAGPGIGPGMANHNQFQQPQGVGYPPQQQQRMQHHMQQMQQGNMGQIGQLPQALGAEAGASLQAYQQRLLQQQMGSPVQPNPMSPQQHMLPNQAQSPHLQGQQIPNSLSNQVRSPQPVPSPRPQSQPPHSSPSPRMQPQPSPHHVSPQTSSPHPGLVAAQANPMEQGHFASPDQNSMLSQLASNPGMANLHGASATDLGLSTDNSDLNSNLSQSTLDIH
Assay: Histone Acetyltransferase (HAT) in vitro acetylation assay, western blot of H3K27ac / H3K18ac
Type: biochemical
Details: compound in DMSO; EC50 for activators; read-out: H3-Lys 27 EC50
One number for each entry, in nM.

>>> meas_value("CCOc1ccnc(OCCN(C)C)c1C(=O)Nc1ccc(Cl)c(C(F)(F)F)c1")
594

For each listed entry, give its EC50.
1. CCOc1cccc(OCCN(C)C)c1C(=O)Nc1ccc(Cl)cn1
2. CCOc1cccc(OCCN(C)C)c1C(=O)Nc1ccc(Cl)c(C(F)(F)F)n1
3. CCOc1cccc(O)c1C(=O)Nc1cccc(C(F)(F)F)c1

Reply text:
15.9
57.6
533

* * *

Target: UniProt Q09472
Assay: Histone Acetyltransferase (HAT) in vitro acetylation assay, western blot of H3K27ac / H3K18ac
Type: biochemical
Conditions: compound in DMSO; EC50 for activators; read-out: H3-Lys 18 EC50
Description: The aim of the in vitro acetylation assay is to measure the enzymatic activity of the various compounds towards p300. First, the drug is prepared: […] FIGS. 1A to 25B are graphs showing the lysine residue acetylation as a function of concentration for the compounds set forth in Table 3. The shaded area corresponds to the average values of lysine residue acetylation (continuous line) and their standard error range measured in the absence of compound and DMSO. […]
parameter_measured: pEC50
Give bare numbers, as −log10 of the molar value.

Recorded pEC50, per entry:
>>> meas_value("COc1cccc(OC)c1C(=O)Nc1ccc(Cl)c(C(F)(F)F)c1")
6.86
>>> meas_value("CCOc1ccnc(OCCN(C)C)c1C(=O)Nc1ccc(Cl)c(C(F)(F)F)c1")
7.12
>>> meas_value("CCOc1cccc(OCCN(C)C)c1C(=O)Nc1ccc(Cl)c(C(F)(F)F)n1")
7.14
>>> meas_value("CCOc1cccc(OCC)c1C(=O)Nc1ccc(Cl)c(C(F)(F)F)c1")
6.85
>>> meas_value("CCOc1cccc(O)c1C(=O)Nc1cccc(C(F)(F)F)c1")
6.84

Now let's try a different one.
Inquiry: For the record CCOc1cccc(OCCOC)c1C(=O)Nc1ccc(Cl)c(C(F)(F)F)c1 , what value of pEC50 is listed for UniProt Q09472?
Reply text: 6.89
